Please find below IC50 data on Prothrombin (Homo sapiens, UniProt P00734) compiled from the literature.

Worked examples, 2 compounds total:
| Compound | IC50 |
| --- | --- |
| COc1ccc(S(=O)(=O)Nn2ccc(C)c(CC(=O)NCc3ccc(N)nc3)c2=O)c(OC)c1 | > 44.4 µM |
| N=C(N)CCCC[C@H]1C(=O)N[C@H]2Cc3ccccc3[C@@H]21 | > 200 µM |

Ask: Any idea what IC50 came out for CC(C)(C)OC(=O)NC(CCCCN)C(=O)NCC(=O)N[C@H](C=O)CCCN=C(N)N (single isomer, unassigned) on Prothrombin (Homo sapiens, UniProt P00734)?
Reply: > 100 µM
